Biological target: Yap3 (UniProt P38749)
Sequence: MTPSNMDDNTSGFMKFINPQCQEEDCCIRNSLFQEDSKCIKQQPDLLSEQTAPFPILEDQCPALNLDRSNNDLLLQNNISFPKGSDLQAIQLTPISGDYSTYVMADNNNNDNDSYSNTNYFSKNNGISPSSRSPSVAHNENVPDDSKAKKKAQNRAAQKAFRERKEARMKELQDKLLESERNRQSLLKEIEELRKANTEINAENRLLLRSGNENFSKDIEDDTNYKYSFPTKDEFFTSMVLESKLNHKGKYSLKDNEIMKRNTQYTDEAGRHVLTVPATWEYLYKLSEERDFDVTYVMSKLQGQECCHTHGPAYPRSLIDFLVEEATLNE
Experiment: PBM E-score (8-mer binding enrichment) (E-score (-0.5 to 0.5)); higher = stronger / more preferred TF binding
Details: protein concentration: 100 nM; construct: GST-full length
In all, about 33,000 sequences were measured (“E-score (-0.5 to 0.5)”: median about -0.0034, highest 2% from about 0.25 on). For the sample, the highest values were picked, then their nearest neighbours and some sequences at random.
Property label: PBM E-score
Write the value as a bare number.

Summary: GAATAATA , Yap3 (UniProt P38749), PBM E-score = 0.292

Summary: CATTACTC , Yap3 (UniProt P38749), PBM E-score = 0.221

Summary: ACTACGTG , Yap3 (UniProt P38749), PBM E-score = -0.166

Summary: CCAACAGC , Yap3 (UniProt P38749), PBM E-score = 0.0293

Summary: GCGACAAA , Yap3 (UniProt P38749), PBM E-score = 0.0655

Summary: AATGATAT , Yap3 (UniProt P38749), PBM E-score = 0.242

Summary: AAATAAAT , Yap3 (UniProt P38749), PBM E-score = 0.241

Summary: ATACCATC , Yap3 (UniProt P38749), PBM E-score = 0.119

Summary: ATTACGCC , Yap3 (UniProt P38749), PBM E-score = 0.0197

Summary: CCCGCCCC , Yap3 (UniProt P38749), PBM E-score = 0.022

Summary: CCTGATTA , Yap3 (UniProt P38749), PBM E-score = 0.18

Summary: ATTACGCA , Yap3 (UniProt P38749), PBM E-score = 0.233

Summary: GAATAATC , Yap3 (UniProt P38749), PBM E-score = 0.217

Summary: TAATAACA , Yap3 (UniProt P38749), PBM E-score = 0.189

Summary: ACGAAAAA , Yap3 (UniProt P38749), PBM E-score = 0.0676

Summary: ATTAGGTC , Yap3 (UniProt P38749), PBM E-score = 0.286

Summary: ACGAAAAT , Yap3 (UniProt P38749), PBM E-score = 0.257

Summary: AATCGGGA , Yap3 (UniProt P38749), PBM E-score = 0.0297

Summary: AGATTATG , Yap3 (UniProt P38749), PBM E-score = 0.129

Summary: ATATTACG , Yap3 (UniProt P38749), PBM E-score = 0.412

Summary: CCATTACA , Yap3 (UniProt P38749), PBM E-score = 0.272

Summary: ACATTACT , Yap3 (UniProt P38749), PBM E-score = 0.213

Summary: ATATTACA , Yap3 (UniProt P38749), PBM E-score = 0.226

Summary: ATATTATG , Yap3 (UniProt P38749), PBM E-score = 0.399

Summary: GAATAAGA , Yap3 (UniProt P38749), PBM E-score = 0.109

Summary: TGATAACA , Yap3 (UniProt P38749), PBM E-score = 0.258

Summary: AGTACGTG , Yap3 (UniProt P38749), PBM E-score = -0.0755

Summary: CCATTACG , Yap3 (UniProt P38749), PBM E-score = 0.0884

Summary: ATTTATAA , Yap3 (UniProt P38749), PBM E-score = 0.273

Summary: GAATAGAA , Yap3 (UniProt P38749), PBM E-score = 0.125

Summary: AAAGATGA , Yap3 (UniProt P38749), PBM E-score = 0.144

Summary: CCTGCGCA , Yap3 (UniProt P38749), PBM E-score = -0.158

Summary: CTGTGACA , Yap3 (UniProt P38749), PBM E-score = 0.0329
